# ASSAY SUMMARY: NCI Yeast Anticancer Drug Screen. Data for the mlh1 rad18 strain (AID 175)
# CONDITIONS: S. cerevisiae mlh1 rad18 strain growth inhibition; at 50.0 µM; hits give high values
Compounds without any hit were thinned out: in the full panel of roughly 79,000, 15% have a hit.
READOUT: growth inhibition (%)
Response body: numeric value in %, unit text excluded.

{"columns": ["MOLECULE", "UNIT STRING", "growth inhibition"],
 "data": [
  ["Cc1ccc(C(=O)CSC2=NCCN2)cc1Cl", "%", 19.2],
  ["CCOC(=O)C(=[N+]=[N-])C(O)C1OC(c2ccccc2)OCC1O (stereo not drawn)", "%", 24.7],
  ["COc1cc([N+](=O)[O-])ccc1NC(=O)C(Br)C(Br)c1ccccc1 (stereo not drawn)", "%", 15.6],
  ["N#CCCn1[nH]c(=O)c(Cl)c(Cl)c1=O", "%", -3.3],
  ["O=C(CC(=O)N(C(=O)c1ccccc1)c1ccc(Cl)cc1)N/N=C\\c1ccccc1O", "%", -15.4]
]}

Query block: If you can, please state the reported growth inhibition value of CCOC(=O)/C(C#N)=C/Nc1c(C)n(C)n(-c2ccccc2)c1=O .
Result block: 13.6

Query block: If you can, please state the reported growth inhibition value of O=C(OCCCCCCCCOC(=O)c1ccc([N+](=O)[O-])cc1)c1ccc([N+](=O)[O-])cc1 .
Result block: 5.9

Query block: If you can, please state the reported growth inhibition value of O=C(O)CSc1n[nH]c(-c2ccccc2O)n1 .
Result block: 7.25

Query block: If you can, please state the reported growth inhibition value of O=C(NCCNCCCNC(=O)c1cc(-c2ccccc2)nc2ccccc12)c1cccc(O)c1O .
Result block: 44.2

Query block: If you can, please state the reported growth inhibition value of C(=C\c1csnn1)/c1ccc(/C=C/c2csnn2)cc1 .
Result block: -8.2

FYI, the data here is from PubChem BioAssay (NCI).
